Tested on: Candida tropicalis
Test: Antifungal activity against Candida tropicalis C 131 2000
Format: functional
Reported MIC values are given for each entry in this list.

| compound | target_or_test_system | property | result |
| --- | --- | --- | --- |
| CC1=CC(=O)N(CCc2ccccc2)C1O (configuration not stated) | Candida tropicalis | MIC | > 250 µg/mL |
| O=C(O)/C=C\C(=O)NCc1ccccc1 | Candida tropicalis | MIC | > 250 µg/mL |
| CC1=CC(O)N(CCCc2ccccc2)C1=O (configuration not stated) | Candida tropicalis | MIC | > 250 µg/mL |
| O=C1C(Cl)=C(Cl)C(=O)N1CCCCc1ccccc1 | Candida tropicalis | MIC | 7.81 µg/mL |
| O=C1C=CC(=O)N1CCc1ccccc1 | Candida tropicalis | MIC | 15.6 µg/mL |
| CC1=C(C)C(=O)N(c2ccccc2)C1=O | Candida tropicalis | MIC | > 250 µg/mL |
| O=C1C=CC(=O)N1c1ccc(F)cc1 | Candida tropicalis | MIC | 15.6 µg/mL |
| CC1=CC(O)N(c2ccccc2)C1=O (configuration not stated) | Candida tropicalis | MIC | > 250 µg/mL |
| O=C1CCC(=O)N1CCCc1ccccc1 | Candida tropicalis | MIC | > 250 µg/mL |
| O=C(O)/C=C\C(=O)NCCCCc1ccccc1 | Candida tropicalis | MIC | > 250 µg/mL |

# input Item: "CC1=C(C)C(=O)N(CCCCc2ccccc2)C1=O" Test system: Candida tropicalis Read-out: MIC Value: ?
# output > 250 µg/mL

# input Same question for CC1=CC(=O)N(Cc2ccccc2)C1O (configuration not stated) please.
# output > 250 µg/mL

---

System: Aspergillus niger
Assay: Antifungal activity against Aspergillus niger ATCC 9029
Assay type: functional
Listed here: items and their measured MIC.

Study these solved cases before continuing.
| compound | property | result |
| --- | --- | --- |
| CC1=C(C)C(=O)N(c2ccccc2)C1=O | MIC | > 250 µg/mL |
| CC1=CC(=O)N(CCc2ccccc2)C1O (configuration not stated) | MIC | > 250 µg/mL |
| CC1=CC(=O)N(CCCc2ccccc2)C1O (configuration not stated) | MIC | > 250 µg/mL |
| O=C1CCC(=O)N1CCc1ccccc1 | MIC | > 250 µg/mL |
| O=C1CCC(=O)N1CCCCc1ccccc1 | MIC | > 250 µg/mL |
| O=C1C=CC(O)N1CCCc1ccccc1 (configuration not stated) | MIC | > 250 µg/mL |

# input Can you share its MIC? I mean this compound: "C[C@@H]1[C@H](O)[C@@H](C)/C=C/C=C/C=C/C=C/C=C/C=C/C=C/[C@H](O[C@@H]2O[C@H](C)[C@@H](O)[C@H](N)[C@@H]2O)C[C@@H]2O[C@](O)(C[C@@H](O)C[C@@H](O)[C@H](O)CC[C@@H](O)C[C@@H](O)CC(=O)O[C@H]1C)C[C@H](O)[C@H]2C(=O)O"
# output 0.48 µg/mL

# input Another compound to look at: "O=C1C(Cl)=C(Cl)C(=O)N1Cc1ccccc1"
# output 31.2 µg/mL

# input Lookup O=C1C=CC(O)N1CCCCc1ccccc1 (configuration not stated)
# output > 250 µg/mL

# input Now the compound "O=C1C=CC(=O)N1c1ccc(F)cc1F"
# output 15.6 µg/mL

# input Consider next the compound "CC1=CC(=O)N(CCCc2ccccc2)C1=O" in the same way.
# output 31.2 µg/mL

# input Quick one: "O=C1C=CC(=O)N1c1ccc(F)cc1"
# output 7.81 µg/mL

# input // repeat for "O=C(O)/C=C\C(=O)NCCc1ccccc1" and report
# output > 250 µg/mL

# input Input "O=C1C(c2ccccc2)=C(c2ccccc2)C(=O)N1c1ccccc1"
# output > 250 µg/mL

# input Now the compound CC1=CC(O)N(CCCc2ccccc2)C1=O (configuration not stated)
# output > 250 µg/mL

# input Try the compound CC1=CC(=O)N(CCCCc2ccccc2)C1O (configuration not stated)
# output > 250 µg/mL

# input // repeat for CC1=CC(O)N(c2ccccc2)C1=O (configuration not stated) and report
# output > 250 µg/mL
